target.under.test: Ba/F3 BCR-ABL1 T315I (Homo sapiens, UniProt P00519+P11274, T315I)
Construct: BCR (N-terminal fusion partner of the oncoprotein)
protocol.details: Cell growth inhibitory activity assay (CellTiter-Glo), Ba/F3 BCR-ABL1 T315I cells
experimental.context: 72 h, CTG cell viability
pIC50: −log10 of the molar value.
Task for the reader: assign each of the following compounds its reported pIC50.

>  <compound>
C[C@@H]1COCc2nc3cc(C(=O)Nc4ccc(OC(F)(F)Cl)cc4)cc(-c4cnc5c(c4)-c4nn(CCOC(C)(C)C)cc4C5)c3n21

>  <pIC50>
< 6.00

$$$$
>  <compound>
C[C@@H]1CCC(F)c2nc3cc(C(=O)Nc4ccc(OC(F)(F)Cl)cc4)cc(-c4cnc5c(c4)C(=O)N(C4CC4)C5)c3n21 (stereo partly drawn)

>  <pIC50>
7.30 to 8.30

$$$$
>  <compound>
COc1ccc(-c2ccnc(-n3ncc4c3-c3cc(-c5cc(C(=O)Nc6ccc(OC(F)(F)Cl)cc6)cc6nc7n(c56)[C@H](C)COC7)cnc3C4)n2)cc1F

>  <pIC50>
6.00 to 7.30

$$$$
>  <compound>
C[C@@H]1COCc2nc3cc(C(=O)Nc4ccc(OC(F)(F)Cl)cc4)cc(-c4cnc5c(c4)-c4nn(-c6ncc7ccsc7n6)cc4C5)c3n21

>  <pIC50>
≥ 8.30

$$$$
>  <compound>
O=C(Nc1ccc(OC(F)(F)Cl)cc1)c1cnc(N2CC[C@@H](F)C2)c(-c2cnc3c(c2)-c2n[nH]cc2C3)c1

>  <pIC50>
≥ 8.30

$$$$

Moving on to another compound below.
Looking up C[C@@H]1COCc2nc3cc(C(=O)Nc4ccc(OC(F)(F)Cl)cc4)cc(-c4cnc5c(c4)-c4nn(-c6ncc7cccnc7n6)cc4C5)c3n21 , I see its pIC50 listed as ≥ 8.30

###

target.under.test: Ba/F3 BCR-ABL1 WT (Homo sapiens, UniProt P00519+P11274)
Construct: BCR (N-terminal fusion partner of the oncoprotein); expressed in transfected cells; host or cells: Ba/F3 (lentiviral transduction, monoclonal line)
protocol.details: Cell growth inhibitory activity assay (CellTiter-Glo), Ba/F3 BCR-ABL1 WT cells
Format: cell-based
experimental.context: 72 h, CTG cell viability
property.measured: IC50

>  <compound>
CC(C)n1cnc2cc(C(=O)Nc3ccc(OC(F)(F)Cl)cc3)cc(-c3cnc4c(c3)-c3n[nH]cc3C4)c21 [T-119]

>  <result>
≤ 5 nM

$$$$

For each listed entry, give its IC50.
1. C[C@@H]1COCc2nc3cc(C(=O)Nc4ccc(OC(F)(F)Cl)cc4)cc(-c4cnc5c(c4)-c4nn(C(F)F)cc4C5)c3n21 [T-51]
2. CC(=O)N[C@H]1CCC2c3cc(C(=O)Nc4ccc(OC(F)(F)Cl)cc4)cc(-c4cnccn4)c3N(C(C)C)C21 (stereo partly shown) [T-12-A]
3. N#Cc1ccnc(-n2cc3c(n2)-c2cc(-c4cc(C(=O)Nc5ccc(OC(F)(F)Cl)cc5)cnc4N4CC[C@@H](F)C4)cnc2C3)n1 [T-129]
4. CC(C)C(=O)n1cc2c(n1)-c1cc(-c3cc(C(=O)Nc4ccc(OC(F)(F)Cl)cc4)cc4nc5n(c34)[C@H](C)COC5)cnc1C2 [T-46]
5. O=C(Nc1ccc(OC(F)(F)Cl)cc1)c1cc2c(c(-c3cnc4c(c3)-c3nn(-c5ncc(F)cn5)cc3C4)c1)C1(CCCCC1)C(=O)N2 [T-127]

Response:
1. 5 to 50 nM
2. 50 to 1000 nM
3. ≤ 5 nM
4. ≤ 5 nM
5. ≤ 5 nM

Give IC50 for all compounds that follow.
1. CC(C)n1cnc2cc(C(=O)Nc3ccc(OC(F)(F)Cl)cc3)cc(-c3cnc4c(c3)C(=O)N(C)C4)c21 [T-2]
2. C[C@@H]1COCc2nc3cc(C(=O)Nc4ccc(OC(F)(F)Cl)cc4)cc(-c4cnc5c(c4)-c4nn(-c6ccncn6)cc4C5)c3n21 [T-67]
3. O=C(Nc1ccc(OC(F)(F)Cl)cc1)c1cc2c(c(-c3cnc4c(c3)-c3nn(-c5nccc(-c6cncc(F)c6)n5)cc3C4)c1)C1(CCCCC1)C(=O)N2 [T-140]
4. C[C@@H]1COCc2nc3cc(C(=O)Nc4ccc(OC(F)(F)Cl)cc4)cc(-c4cnc5c(c4)-c4nn(-c6nccc(-c7ccccc7F)n6)cc4C5)c3n21 [T-92]

Response:
≤ 5 nM
≤ 5 nM
≤ 5 nM
≤ 5 nM

State recorded IC50 for all listed compounds.
1. C[C@@H]1COCc2nc3cc(C(=O)Nc4ccc(OC(F)(F)Cl)cc4)cc(-c4ccc5c(c4)-c4nc(N)sc4C5)c3n21 [T-111]
2. C[C@@H]1COCc2nc3cc(C(=O)Nc4ccc(OC(F)(F)Cl)cc4)cc(-c4cnc5c(c4)-c4nn(CCOC(C)(C)C)cc4C5)c3n21 [T-56-A]

Response:
1: ≤ 5 nM; 2: 50 to 1000 nM

Entry [2H]C1([2H])c2cn(-c3ncccn3)nc2-c2cc(-c3cc(C(=O)Nc4ccc(OC(F)(F)Cl)cc4)cc4nc5n(c34)[C@H](C)COC5)cnc21 [T-105] , IC50 reported as ≤ 5 nM

###

target.under.test: Ba/F3 BCR-ABL1 WT (Homo sapiens, UniProt P00519+P11274)
Construct: BCR (N-terminal fusion partner of the oncoprotein)
protocol.details: Cell growth inhibitory activity assay (CellTiter-Glo), Ba/F3 BCR-ABL1 WT cells
experimental.context: 72 h, CTG cell viability
pIC50: −log10 of the molar value.
Give measured pIC50 for each item. Keep answers brief.

>  <compound>
O=C(Nc1ccc(OC(F)(F)Cl)cc1)c1cnc(N2CC[C@@H](F)C2)c(-c2cnc3c(c2)-c2nn(-c4ncc(N5CC[C@H](F)C5)cn4)cc2C3)c1 [T-55]

>  <target.under.test>
Ba/F3 BCR-ABL1 WT (Homo sapiens, UniProt P00519+P11274)

>  <pIC50>
≥ 8.30

$$$$
>  <compound>
C[C@@H]1COCc2nc3cc(C(=O)Nc4ccc(OC(F)(F)Cl)cc4)cc(-c4cnc5c(c4)-c4nn(-c6nccc(-c7cccnc7)n6)cc4C5)c3n21 [T-87]

>  <target.under.test>
Ba/F3 BCR-ABL1 WT (Homo sapiens, UniProt P00519+P11274)

>  <pIC50>
≥ 8.30

$$$$
>  <compound>
C[C@@H]1CCS(=O)(=O)c2nc3cc(C(=O)Nc4ccc(OC(F)(F)Cl)cc4)cc(-c4cnc5c(c4)C(=O)N(C)C5)c3n21 [T-28]

>  <target.under.test>
Ba/F3 BCR-ABL1 WT (Homo sapiens, UniProt P00519+P11274)

>  <pIC50>
7.30 to 8.30

$$$$
>  <compound>
C[C@@H]1COCc2nc3cc(C(=O)Nc4ccc(OC(F)(F)Cl)cc4)cc(-c4cnc5c(c4)-c4nn(-c6ncc7c(ccn7C)n6)cc4C5)c3n21 [T-84]

>  <target.under.test>
Ba/F3 BCR-ABL1 WT (Homo sapiens, UniProt P00519+P11274)

>  <pIC50>
≥ 8.30

$$$$
>  <compound>
Cn1ccc(-c2ccnc(-n3cc4c(n3)-c3cc(-c5cc(C(=O)Nc6ccc(OC(F)(F)Cl)cc6)cc6c5C5(CCCCC5)C(=O)N6)cnc3C4)n2)n1 [T-138]

>  <target.under.test>
Ba/F3 BCR-ABL1 WT (Homo sapiens, UniProt P00519+P11274)

>  <pIC50>
≥ 8.30

$$$$

Attention now shifts to the item below.
Form: item C[C@@H]1COCc2nc3cc(C(=O)Nc4ccc(OC(F)(F)Cl)cc4)cc(-c4cnc5c(c4)-c4nn(-c6ncc7ccsc7n6)cc4C5)c3n21 [T-83] ; test system Ba/F3 BCR-ABL1 WT (Homo sapiens, UniProt P00519+P11274); pIC50: ≥ 8.30

###

For each of the compounds below, state its pIC50.
Tested on: K562 cells
protocol.details: Cell growth inhibitory activity assay (CellTiter-Glo), K562 cells
Format: cell-based
experimental.context: Homo sapiens, 72 h, CTG cell viability
pIC50: −log10 of the molar value.

These solved cases illustrate the format of a correct answer.
>  <compound>
C[C@@H]1COCc2nc3cc(C(=O)Nc4ccc(OC(F)(F)Cl)cc4)cc(-c4cnc5c(c4)-c4nn(-c6ncc7ccccc7n6)cc4C5)c3n21

>  <pIC50>
≥ 8.30

$$$$
>  <compound>
CC(=O)Nc1nc2c(s1)Cc1ccc(-c3cc(C(=O)Nc4ccc(OC(F)(F)Cl)cc4)cc4nc5n(c34)[C@H](C)COC5)cc1-2

>  <pIC50>
≥ 8.30

$$$$
>  <compound>
COc1ccc(-c2ccnc(-n3cc4c(n3)-c3cc(-c5cc(C(=O)Nc6ccc(OC(F)(F)Cl)cc6)cc6nc7n(c56)[C@H](C)COC7)cnc3C4)n2)cc1F

>  <pIC50>
≥ 8.30

$$$$
>  <compound>
Cc1cnc(-n2cc3c(n2)-c2cc(-c4cc(C(=O)Nc5ccc(OC(F)(F)Cl)cc5)cnc4N4CC[C@@H](F)C4)cnc2C3)nc1

>  <pIC50>
≥ 8.30

$$$$
>  <compound>
CC(=O)N[C@H]1CCC2c3cc(C(=O)Nc4ccc(OC(F)(F)Cl)cc4)cc(-c4cnc5c(c4)C(=O)N(C)C5)c3N(C(C)C)C21 (stereo partly shown)

>  <pIC50>
6.00 to 7.30

$$$$
>  <compound>
O=C(Nc1ccc(OC(F)(F)Cl)cc1)c1cnc(N2CC[C@@H](F)C2)c(-c2cnc3c(c2)-c2nn(-c4ncc5ccsc5n4)cc2C3)c1

>  <pIC50>
≥ 8.30

$$$$
>  <compound>
Nc1nc(N2CC[C@@H](F)C2)c(-c2cnc3c(c2)-c2nn(-c4ncc(F)cn4)cc2C3)cc1C(=O)Nc1ccc(OC(F)(F)Cl)cc1

>  <pIC50>
≥ 8.30

$$$$
>  <compound>
CC(=O)n1cc2c(n1)-c1cc(-c3cc(C(=O)Nc4ccc(OC(F)(F)Cl)cc4)cc4nc5n(c34)[C@H](C)COC5)cnc1C2

>  <pIC50>
≥ 8.30

$$$$
>  <compound>
O=C(Nc1ccc(OC(F)(F)Cl)cc1)c1cc2c(c(-c3cnc4c(c3)-c3nn(-c5ncc(F)cn5)cc3C4)c1)C1(CCCCC1)C(=O)N2

>  <pIC50>
≥ 8.30

$$$$
>  <compound>
Cc1cnc(-n2cc3c(n2)-c2cc(-c4cc(C(=O)Nc5ccc(OC(F)(F)Cl)cc5)cc5nc6n(c45)[C@H](C)COC6)cnc2C3)nc1

>  <pIC50>
≥ 8.30

$$$$

Required: pIC50, one value per compound below.
1. C[C@@H]1CCC(O)c2nc3cc(C(=O)Nc4ccc(OC(F)(F)Cl)cc4)cc(-c4cnc5c(c4)C(=O)NC5)c3n21 (stereo partly shown)
2. C[C@@H]1COCc2nc3cc(C(=O)Nc4ccc(OC(F)(F)Cl)cc4)cc(-c4cnc5c(c4)-c4c(cnn4-c4nccc(C#N)n4)C5)c3n21
3. C[C@@H]1COCc2nc3cc(C(=O)Nc4ccc(OC(F)(F)Cl)cc4)cc(-c4cnc5c(c4)-c4nn(C)cc4C5)c3n21

Response:
1: ≥ 8.30; 2: ≥ 8.30; 3: ≥ 8.30
